- Experiment Notes: Solubility of Compound I over a greater pH range
- Experimental Conditions: aqueous buffer

# Molecule, solubility
measured = [
    ("COC(=O)N[C@H](C(=O)N1CC2(CC2)C[C@H]1c1ncc(-c2ccc3c(c2)C(F)(F)c2cc(-c4ccc5nc([C@@H]6[C@H]7CC[C@H](C7)N6C(=O)[C@@H](NC(=O)OC)C(C)C)[nH]c5c4)ccc2-3)[nH]1)C(C)C [Compound I]", "< 1 µg/mL"),
]

Hey, just so you know, these numbers are from patent US9139570B2.
